Test: differential killing of epithelial or mesenchymal cells, primary screen, imaging, PC-3E GFP, TEM4-18 mCherry, co-culture (AID 1345086);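 note: cells exposed to compound for 72 h before imaging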
Settings: imaging cell counts, measured here: epithelial PC-3E GFP cell survival, at 1 µM
# met = normalised cell number below 1 (exclusive); not met = normalised cell number at/above 1

COMPOUND	GROUP LABEL
CC(CN1c2ccccc2Sc2ccccc21)N(C)C (stereo not drawn)	not met
C/C=C/C(=O)N(CC)c1ccccc1C	met
Clc1cccc(Cl)c1NC1=NCCN1	not met
CN[C@@H]1[C@H](O)[C@H](NC)[C@H]2O[C@@]3(O)C(=O)C[C@@H](C)O[C@H]3O[C@@H]2[C@H]1O	met
CC(=O)OCC(CCn1cnc2cnc(N)nc21)COC(C)=O	not met

Enquiry: Is normalised cell number strictly under 1 for the entry NS(=O)(=O)c1cc2c(cc1Cl)NC=NS2(=O)=O ?
Return: met

---

Experiment: IRF3 reporter activation in THP-1 macrophages, cell-based, PMA-stimulated THP-1, luminescence (AID 1053176)
Conditions: PMA-differentiated THP-1, IRF3 reporter luminescence
Activity calls are given as the source filed them. The rule behind the calls is not given here.
# valid calls are Yes = active, No = inactive; nothing else

These recorded examples may help you get a feel for the data.
MOLECULE	GROUP LABEL
Cn1c(-c2nonc2N)nc2cnccc21	No
Cn1cc(C2=C(c3cn(C)c4ccc(Cl)cc34)C(=O)NC2=O)c2ccccc21	No

Enquiry: I'd appreciate the recorded outcome for CCCN1CCC(c2ccc(Nc3nc(Nc4cc(F)ccc4C(N)=O)c4cc[nH]c4n3)c(OC)c2)CC1 from this test.
Return: No

Enquiry: Field: outcome | Entry: COc1cc2c(cc1Nc1nc(Nc3ccsc3C(N)=O)c3cc[nH]c3n1)N(C(=O)CN(C)C)CCC2(C)C
Return: No

Enquiry: Called result for CCn1c(-c2nonc2N)nc2cnc(Oc3cccc(NC(=O)c4ccc(OCCN5CCOCC5)cc4)c3)cc21
Return: No

Enquiry: Each molecule tested received a call. Report the one for Cn1cc(C2=C(c3c4n(c5ccccc35)CCCC4)C(=O)NC2=O)c2ccccc21 .
Return: No

---

Assay: glucagon-like peptide 1 release enhancers, primary assay, NCI-H716 cell line, NPC library (AID 1117341)
Conditions: NCI-H716 cells, at 10 µM, stronger effect = higher value
QUANTITY KIND: GLP1 secretion stimulation (%)
Please respond with the number in % and leave the unit unwritten.

# count of solved cases: 6
COMPOUND	UNIT ABBREVIATION	RESULT
CC(=O)c1ccc(O)c(C(N)=O)c1	%	1.6
CCN1CCN(C(=O)N[C@@H](C(=O)N[C@@H]2C(=O)N3[C@@H]2SC(C)(C)[C@H]3C(=O)O)c2ccccc2)C(=O)C1=O	%	-0.4
NS(=O)(=O)c1cc2c(cc1C(F)(F)F)NC(Cc1ccccc1)NS2(=O)=O (centres undefined)	%	1.6
CCN(CC)CC(=O)Nc1c(C)cccc1C	%	0.9
CC(C)(C)NC[C@H](O)COc1nsnc1N1CCOCC1	%	1.7
NC(=O)C[C@H](N)C(=O)O	%	2.4

Enquiry: Param item = CCCOC(=O)c1cc(O)c(O)c(O)c1 ; retrieve measured GLP1 secretion stimulation.
Return: -2.1

Enquiry: // returns reported GLP1 secretion stimulation for input CCc1cccc2c(CCO)c[nH]c12
Return: 0.1

Enquiry: Could you share which GLP1 secretion stimulation value was measured for COCCc1ccc(OCC2CO2)cc1 (centres undefined) ?
Return: 0.8
